Can you tell me activity at 10 µM for the items I'm about to list?
Tested on: cholesterol biosynthesis in HepG2 cells
Experiment: Metabolic labeling of HepG2 cells with [3H]acetate; radio-HPLC sterol profile (inhibition of cholesterol biosynthesis)
Assay type: cell-based, human
Conditions: Homo sapiens, 24 h; Table I; 10 μM compound, HepG2; sterol level normalized to normal medium (1.00); mean of 4 experiments; read-out: FF-MAS
Description: In accordance with the aims of the invention, the effect of the novel compounds on inhibition of cholesterol biosynthesis is assessed. An ex vivo method of metabolic labeling of immortal human hepatocytes is employed. […] After 24 hours the growth medium is changed and [^3H]acetate (NEN™ Life Science Products) added in a concentration of 40 μCi per ml of the medium (400 μCi per flask). […] From cell homogenate sterols are extracted and protein concentration determined using the Bio-Rad reagent. […]
Where a name gives a salt, the structure may show the parent alone.
Provide only the numeric value, understood in %.

Query block: Report activity at 10 µM for O=C(Cc1cccnc1)N1CCN(CCc2ccccc2)CC1 [LK-9101B] please.
Result block: 136

Query block: Also OC(CN1CCN(CCc2ccccc2)CC1)c1ccc2ccccc2c1 (centres unmarked) [LK-9111B] ?
Result block: 901

Query block: Also CC(C)c1c(C(=O)Nc2ccccc2)c(-c2ccccc2)c(-c2ccc(F)cc2)n1CC[C@@H](O)C[C@@H](O)CC(=O)O [atorvastatin, reference compound] ?
Result block: 0

Query block: Also COc1ccc(CN2CCN(CCc3ccccc3)CC2)cn1 [LK-9106, trihydrobromide] ?
Result block: 200

Query block: Also c1ccc(CCN2CCN(CCCc3cccnc3)CC2)cc1 [LK-9140, trihydrobromide] ?
Result block: 72

Query block: Also c1ccc(CCN2CCN(Cc3ccc(N4CCOCC4)nc3)CC2)cc1 [LK-9109B] ?
Result block: 650

Query block: Also Clc1ccc(CCN2CCN(CCc3ccccn3)CC2)cc1Cl [LK-9137, trihydrobromide] ?
Result block: 142

Query block: Also Clc1ccc(CCN2CCN(CCc3ccncc3)CC2)cc1Cl [LK-9135, trihydrobromide] ?
Result block: 27

###

System: cholesterol biosynthesis in HepG2 cells
Assay: Metabolic labeling of HepG2 cells with [3H]acetate; radio-HPLC sterol profile (inhibition of cholesterol biosynthesis)
Assay type: cell-based, human
Settings: Homo sapiens, 24 h; Table I; 10 μM compound, HepG2; sterol level normalized to normal medium (1.00); mean of 4 experiments; read-out: lathosterol
Counter-ions that a name gives are not always drawn.
Decide using activity at 10 µM: a value greater than or equal to 10% is Yes, a smaller one is No.

Query block: # bool: activity at 10 µM of Fc1ccc(CCN2CCN(CCc3ccncc3)CC2)cc1F [LK-9131, trihydrobromide] >= 10%
Result block: No

Query block: Also OC(CN1CCN(CCc2ccccc2)CC1)c1ccc2ccccc2c1 (centres unmarked) [LK-9111B] ?
Result block: Yes

Query block: Also CC(C)c1c(C(=O)Nc2ccccc2)c(-c2ccccc2)c(-c2ccc(F)cc2)n1CC[C@@H](O)C[C@@H](O)CC(=O)O [atorvastatin, reference compound] ?
Result block: No

Query block: Also Clc1ccc(CCN2CCN(CCc3ccccn3)CC2)cc1Cl [LK-9137, trihydrobromide] ?
Result block: Yes

Query block: Also Cc1ccc(C(O)CN2CCN(CCc3ccccc3)CC2)cn1 (centres unmarked) [LK-9139, trihydrobromide] ?
Result block: Yes

Query block: Also OC(CN1CCN(c2ccc(F)cc2)CC1)c1cccnc1 (centres unmarked) [LK-9144, trihydrobromide] ?
Result block: Yes

Query block: Also Fc1ccc(CCN2CCN(CCc3ccccn3)CC2)cc1F [LK-9138, trihydrobromide] ?
Result block: No

Query block: Also FC(F)(F)c1cnc(N2CCCN(CCc3ccccc3)CC2)c(Cl)c1 [LK-9115, trihydrobromide] ?
Result block: Yes

Query block: Also OC(CN1CCN(Cc2ccc(F)cc2)CC1)c1cccnc1 (centres unmarked) [LK-9148, trihydrobromide] ?
Result block: Yes

Query block: Also FC(F)(F)c1ccc(CN2CCN(CCc3ccccc3)CC2)cn1 [LK-9107, trihydrobromide] ?
Result block: Yes

Query block: Also c1ccc(CCN2CCN(Cc3ccc(N4CCOCC4)nc3)CC2)cc1 [LK-9109B] ?
Result block: No
